Assay: chemical genetic growth profiling, strain panel (AID 1159580);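 also: tested at 20 µM; growth read once vehicle control cultures reached saturation at 30 °C; 1 = growth at the plate median or of vehicle wells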
Conditions: S. cerevisiae deletion strains, growth OD, locus YLR371W, strain rom2, stronger effect = lower value
Screen size: about 5,500 compounds; about 2,000 (36%) were called active. Inconclusive results (about 18%) are left out. This is one part of the list.
Property: normalized growth

Solved entries:
>  <Compound>
OC(CCN1CCCCC1)(c1ccccc1)C1CCCCC1 (stereo not given)

>  <Recorded result>
1 (inactive)

$$$$
>  <Compound>
Clc1ccccc1C(c1ccccc1)(c1ccccc1)n1ccnc1

>  <Recorded result>
0.0633 (active)

$$$$
>  <Compound>
CC(=O)Nc1ccc(OCC(O)CNC(C)C)cc1 (stereo not given)

>  <Recorded result>
1.01 (inactive)

$$$$
>  <Compound>
O=C(COc1ccc(Cl)cc1)N1CCN(Cc2ccc3c(c2)OCO3)CC1

>  <Recorded result>
0.985 (inactive)

$$$$

Please examine the following record next.
Inquiry: Please report the recorded normalized growth for CC(C)=CCCC1(C)C=Cc2c(O)c3c(c(CC=C(C)C)c2O1)OC12C(=CC4CC1C(C)(C)OC2(C/C=C(/C)C(=O)O)C4O)C3=O (stereo not given) .
Reply text: 0.964 (inactive)

====

Assignment: determine reported normalized growth for the given compounds.
Assay: chemical genetic growth profiling, strain panel (AID 1159580)
Conditions: S. cerevisiae deletion strains, growth OD, locus YKL068W, stronger effect = lower value
Out of some 5,500 compounds screened, about 2,000 (36%) were called active. Not shown: some 18% with an inconclusive outcome. This is one part of the list.
Give bare numbers.

Solved entries:
>  <Compound>
CC(=O)O[C@H]1CC[C@@]2(C)C(CC[C@]3(C)C2C(=O)C=C2C4[C@@H](C)[C@H](C)CC[C@]4(C(=O)O)CC[C@]23C)C1(C)C (some centres not stated)

>  <normalized growth>
1.03

$$$$
>  <Compound>
CC(C)=CCCC1(C)C=Cc2c(O)c3c(c(CC=C(C)C)c2O1)OC12C(=CC4CC1C(C)(C)OC2(C/C=C(\C)C(N)=O)C4=O)C3=O (configuration not stated)

>  <normalized growth>
0.995

$$$$
>  <Compound>
CC(=O)O[C@@H]1CC[C@@]2(C)C(CC[C@]3(C)C2CC=C2C4CC(C)(C)CC[C@]4(C(=O)O)CC[C@]23C)C1(C)C (some centres not stated)

>  <normalized growth>
1.02

$$$$

// input: 3 compounds below; output: normalized growth for each
1. COC(=O)/C(C)=C\CC12OC(C)(C)C3CC(C=C4C(=O)c5c(O)c6c(c(CCC(C)(C)Cl)c5OC431)OC1(C)CCC(=C(C)C)C6C1)C2=O (configuration not stated)
2. CC(=O)O[C@H]1CC[C@@]2(C)C(CC[C@]3(C)C2CC=C2C4CC(C)(C)CC[C@]4(C)CC[C@]23C)C1(C)C (some centres not stated)
3. CC(C)=CCCC1(C)C=Cc2c(O)c3c(c(CC=C(C)C)c2O1)OC12C(=CCCC1C(C)(C)O[C@@]2(C/C=C(\C)C(=O)O)C(=O)O)C3=O (some centres not stated)

Reply text:
1. 0.999
2. 1.02
3. 0.981

Inquiry: Please report the recorded normalized growth for Cc1ccc(S(=O)(=O)NC(=O)NN2CC3CCCC3C2)cc1 (configuration not stated) .
Reply text: 1.01

====

Assignment: determine reported normalized growth for the given molecules.
Assay: chemical genetic growth profiling, strain panel (AID 1159580)
Conditions: S. cerevisiae deletion strains, growth OD, locus YLR039C, strain RIC1, stronger effect = lower value
The whole screen tested about 5,500 compounds, of which about 2,000 (36%) were called active. Roughly 18% stayed inconclusive and do not appear here. This is one part of the list.
Answers are plain numbers.

Solved entries:
>  <Molecule>
C[C@@H]1CC[C@]2(C(=O)O)CC[C@]3(C)C(=CCC4[C@@]5(C)CC[C@H](O)C(C)(C)C5CC[C@]43C)C2[C@H]1C (stereo partly drawn)

>  <Property>
normalized growth

>  <Recorded result>
1.14

$$$$
>  <Molecule>
C[C@H]1[C@H](C)CC[C@]2(CO)CC[C@]3(C)C(=CCC4[C@@]5(C)CC[C@H](O)C(C)(C)C5CC[C@]43C)[C@H]12 (stereo partly drawn)

>  <Property>
normalized growth

>  <Recorded result>
1.08

$$$$

Please examine the following record next.
Inquiry: Please report the recorded normalized growth for C/C=C(/C)C(=O)O[C@@H]1[C@H](OC(C)=O)[C@@]2(CO)C(CC1(C)C)C1=CCC3[C@@]4(C)CC[C@H](O[C@@H]5O[C@H](C(=O)O)[C@@H](O[C@@H]6O[C@H](CO)[C@@H](O)[C@H](O)[C@H]6O)[C@H](O)[C@H]5O[C@@H]5O[C@H](CO)[C@@H](O)[C@H](O)[C@H]5O)[C@](C)(CO)C4CC[C@@]3(C)[C@]1(C)C[C@H]2O (stereo partly drawn) .
Reply text: 1.04

====

Assay: chemical genetic growth profiling, strain panel (AID 1159580);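 also: tested at 20 µM; growth read once vehicle control cultures reached saturation at 30 °C; 1 = growth at the plate median or of vehicle wells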
Conditions: S. cerevisiae deletion strains, growth OD, locus YOR270C, strain vph1, stronger effect = lower value
Out of some 5,500 compounds screened, about 2,000 (36%) were called active. Roughly 18% stayed inconclusive and do not appear here. The list shows a part of the results.
Lab note: cut-off is 1. Strictly less in normalized growth is MET. Exactly 1 or more is NOT MET.

Please review the following examples before continuing.
>  <Compound>
C/C=C(/C)C(=O)OC1CCC2(C)C3CCC4C5(O)CC(O)C6(O)C(CN7CC(C)CCC7C6(C)O)C5(O)CC42OC13O (configuration not stated)

>  <Assigned class>
MET

$$$$
>  <Compound>
O=c1[nH]cc(F)c(=O)[nH]1

>  <Assigned class>
MET

$$$$
>  <Compound>
NCCC(=O)N[C@@H](Cc1cnc[nH]1)C(=O)O

>  <Assigned class>
NOT MET

$$$$

Inquiry: Given the entry COc1cc(C(=O)O[C@H]2CC[C@@]3(C)[C@@H]4CC[C@H]5[C@]6(O)C[C@H](O)[C@@]7(O)[C@@H](CN8C[C@@H](C)CC[C@H]8[C@@]7(C)O)[C@]6(O)C[C@@]53O[C@]24O)cc(OC)c1OC , would its reported normalized growth be below 1?
Reply text: NOT MET

====

Assay: chemical genetic growth profiling, strain panel (AID 1159580);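 also: tested at 20 µM; growth read once vehicle control cultures reached saturation at 30 °C; 1 = growth at the plate median or of vehicle wells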
Details: S. cerevisiae deletion strains, growth OD, locus YDR150W, strain NUM1, stronger effect = lower value
The campaign covered roughly 5,500 compounds. About 2,000 (36%) were called active. Not shown: some 18% with an inconclusive outcome. The list shows a part of the results.
Assignment: determine reported normalized growth for the given molecules.
Numbers only.

>  <Molecule>
Cc1cc(=O)n2[nH]cc(C#N)c2n1

>  <normalized growth>
1.04

$$$$
>  <Molecule>
CC(C)(Sc1cc(C(C)(C)C)c(O)c(C(C)(C)C)c1)Sc1cc(C(C)(C)C)c(O)c(C(C)(C)C)c1

>  <normalized growth>
1.01

$$$$
>  <Molecule>
O=C(Nc1cc2cc([N+](=O)[O-])ccc2oc1=O)c1c(F)cccc1F

>  <normalized growth>
0.96

$$$$
>  <Molecule>
Nc1ncnc2c1nc(Sc1ccc(Cl)cc1)n2C1OC2COP(=O)(O)O[C@@H]2[C@@H]1O (stereo not given in full)

>  <normalized growth>
0.999

$$$$
>  <Molecule>
Cc1cn([C@H]2C[C@H](N=[N+]=[N-])[C@@H](CO)O2)c(=O)[nH]c1=O

>  <normalized growth>
1

$$$$

// input: 4 molecules below; output: normalized growth for each
1. c1cc2c(cc1N=C1SCC3CCCCN13)OCO2 (stereo not given)
2. Cn1cnc2c(NCc3ccccc3)nc(NCCO)nc21
3. CNC(=O)Oc1ccc2c(c1)C1(C)CCN(C)C1N2C (stereo not given)
4. C[C@@H]1CC[C@]2(C(=O)O)CC[C@]3(C)C(=CCC4[C@@]5(C)CC[C@H](O)C(C)(C)C5CC[C@]43C)C2[C@H]1C (stereo not given in full)

Reply text:
[1.05, 0.998, 1.01, 1.03]

Inquiry: Please report the recorded normalized growth for COc1ccccc1C1OC(=O)CC1C(=O)O (stereo not given) .
Reply text: 0.947

====

Assay: chemical genetic growth profiling, strain panel (AID 1159580);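 also: tested at 20 µM; growth read once vehicle control cultures reached saturation at 30 °C; 1 = growth at the plate median or of vehicle wells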
Conditions: S. cerevisiae deletion strains, growth OD, locus YDR297W, strain sur2
Out of some 5,500 compounds screened, about 2,000 (36%) were called active. Not shown: some 18% with an inconclusive outcome. No stated cut-off is given here; in the data, active means normalized growth mostly below about 0.91 (no sharp cut-off); inconclusive means no clear call, values can overlap the other calls; inactive means mostly above about 0.92. The list shows a part of the results. Where a SMILES comes first, the peptide text is derived from it. Bridges are numbered along the chain shown (N, C = ends). [ ]: non-standard residue; d: D form. The star is where a group is joined. ξ: configuration not given here. ξDab(CH2SO3H) = NC(CCNCS(=O)(=O)O)C(=O)O; Heptanoyl(6-Me) = CC(C)CCCCC(=O)*; Dab = NCC[CH](N)C(=O)O
Write down one outcome, taken from active, inactive

Please review the following examples before continuing.
>  <Compound>
O=c1ccc2ccc(O)cc2o1

>  <Assigned class>
inactive

$$$$
>  <Compound>
CO[C@@]12[C@@H]3NC3CN1C1=C(C(=O)C(N)=C(C)C1=O)[C@@H]2COC(N)=O (some centres not stated)

>  <Assigned class>
inactive

$$$$
>  <Compound>
COC(=O)Nc1nc2ccc(Sc3ccccc3)cc2[nH]1

>  <Assigned class>
inactive

$$$$
>  <Compound>
C#C[C@]1(O)CCC2C3CCC4=CC(=O)CC[C@@H]4C3CC[C@@]21CC (some centres not stated)

>  <Assigned class>
inactive

$$$$

Inquiry: Hi, sorry to bother you, what did the test record for CCC(C)C1NC(=O)C(CCNCS(=O)(=O)O)NC(=O)C(NC(=O)C(CCNCS(=O)(=O)O)NC(=O)C(NC(=O)C(CCNCS(=O)(=O)O)NC(=O)CCCCC(C)C)C(C)O)CCNC(=O)C(C(C)O)NC(=O)C(CCNCS(=O)(=O)O)NC(=O)C(CCNCS(=O)(=O)O)NC(=O)C(C(C)CC)NC1=O (configuration not stated) ({Heptanoyl(6-Me)}-[ξDab(CH2SO3H)]T[ξDab(CH2SO3H)][Dab][ξDab(CH2SO3H)]II[ξDab(CH2SO3H)][ξDab(CH2SO3H)]T; lactam 4-C; configuration not given here) ?
Reply text: inactive

Inquiry: Hi, sorry to bother you, what did the test record for COC(=O)Nc1nc2ccc(S(=O)c3ccccc3)cc2[nH]1 (configuration not stated) ?
Reply text: inactive

Inquiry: Hi, sorry to bother you, what did the test record for Nc1c2ccccc2nc2ccccc12 (tested in a mixture with another compound) ?
Reply text: active

Inquiry: Hi, sorry to bother you, what did the test record for O=C1C(O)=C(O)C(=O)C(O)=C1O ?
Reply text: inactive

Inquiry: Hi, sorry to bother you, what did the test record for O=c1oc2cc(O)ccc2s1 ?
Reply text: inactive

Inquiry: Hi, sorry to bother you, what did the test record for NNC(=O)c1ccncc1 ?
Reply text: inactive

Inquiry: Hi, sorry to bother you, what did the test record for C[C@@H]1OC(O[C@H]2C(O[C@H]3CC[C@@]4(C)C(CC[C@]5(C)C4CC=C4C6CC(C)(C)CC[C@]6(C(=O)O)CC[C@]45C)[C@]3(C)CO)OC[C@H](O)[C@@H]2O)[C@H](O)[C@H](O)[C@H]1O (some centres not stated) ?
Reply text: active

Inquiry: Hi, sorry to bother you, what did the test record for CC1(C)CC[C@]2(C)CC[C@]3(C)C(=CCC4[C@@]5(C)CC[C@H](O)C(C)(C)C5CC[C@]43C)C2C1 (some centres not stated) ?
Reply text: inactive

Inquiry: Hi, sorry to bother you, what did the test record for COC(=O)Nc1nc2ccc(C(=O)c3ccccc3)cc2[nH]1 ?
Reply text: inactive

Inquiry: Hi, sorry to bother you, what did the test record for C#C[C@]1(OC(C)=O)CCC2C3CCC4=CC(=O)CC[C@@H]4C3CC[C@@]21C (some centres not stated) ?
Reply text: inactive

Inquiry: Hi, sorry to bother you, what did the test record for CC(C)(Oc1ccc(CCNC(=O)c2ccc(Cl)cc2)cc1)C(=O)O ?
Reply text: inactive

Inquiry: Hi, sorry to bother you, what did the test record for CC1(C)CC[C@]2(C(=O)O)CC[C@]3(C)C(=CCC4[C@@]5(C)CC[C@@H](O)C(C)(C)C5CC[C@]43C)C2C1 (some centres not stated) ?
Reply text: inactive

Inquiry: Hi, sorry to bother you, what did the test record for CC(=O)O[C@@H]1CC[C@@]2(C)C(CC[C@]3(C)C2CC=C2C4CC(C)(C)CC[C@]4(C(=O)O)CC[C@]23C)C1(C)C (some centres not stated) ?
Reply text: inactive
